Hey, just so you know, these numbers are from patent EP2140864A2.

- measured on: human GAL3 receptor (Homo sapiens)
- Construct: expressed in transfected cells
- test details: Radioligand binding at cloned human GAL3 receptor
- experimental conditions: indolones, cloned human receptor; read-out: Ki GalR3
- Description: The present invention provides for a method of determining the binding affinity of a GAL3 antagonist, wherein the GAL3 antagonist is dissolved in a "suitable solvent". […] The binding properties of the pyrimidines of the present invention were evaluated at the cloned human galanin receptors, GAL1, GAL2, and GAL3, using protocols described herein. […] Binding data were analyzed using nonlinear regression and statistical techniques available in the GraphPAD Prism package (San Diego, CA). […]
quantity: log10 of Ki (log10 of the value in nM)
Note the log scale: values are log10 of Ki expressed in nM.

Report log10 of Ki for every entry below.
1. O=C1C(=Nc2cccc(C(F)(F)F)c2)c2ccccc2N1Cc1ccc(Cl)s1 (mixture of isomers) [Example 108]
2. O=C1/C(=N\c2cc(Cl)cc(Cl)c2)c2ccccc2N1Cc1ccccn1 [Example 274]

Ans:
[1.92, 2.24]

Report log10 of Ki for every entry below.
1. O=C1C(=Nc2ccc3[nH]ccc3c2)c2ccccc2N1c1ccccc1 (mixture of isomers) [Example 112]
2. N#Cc1cccc(/N=C2\C(=O)N(c3ccccc3)c3ccccc32)c1 [Example 288]
3. COc1ccc2c(c1)N(c1ccccc1)C(=O)/C2=N\c1ccc(Cl)c(Cl)c1 [Example 258]

Ans:
1: 3.37; 2: 1.59; 3: 1.83

Report log10 of Ki for every entry below.
1. Cc1cc(N=C2C(=O)N(c3ccsc3)c3ccccc32)ccc1Cl [Example 290]
2. O=C1C(=Nc2ccc(Oc3ccccc3)cc2)c2ccccc2N1c1ccccc1 [Example 100]

Ans:
1. 1.74
2. 1.95

Q: Look up log10 of Ki: O=C1/C(=N\c2cccc(C(F)(F)F)c2)c2cc(-c3ccccc3)ccc2N1c1ccccc1 [Example 308]
Ans: 1.99

====

- measured on: DA transporter (Rattus norvegicus, UniProt P23977)
- Sequence (P23977 whole entry): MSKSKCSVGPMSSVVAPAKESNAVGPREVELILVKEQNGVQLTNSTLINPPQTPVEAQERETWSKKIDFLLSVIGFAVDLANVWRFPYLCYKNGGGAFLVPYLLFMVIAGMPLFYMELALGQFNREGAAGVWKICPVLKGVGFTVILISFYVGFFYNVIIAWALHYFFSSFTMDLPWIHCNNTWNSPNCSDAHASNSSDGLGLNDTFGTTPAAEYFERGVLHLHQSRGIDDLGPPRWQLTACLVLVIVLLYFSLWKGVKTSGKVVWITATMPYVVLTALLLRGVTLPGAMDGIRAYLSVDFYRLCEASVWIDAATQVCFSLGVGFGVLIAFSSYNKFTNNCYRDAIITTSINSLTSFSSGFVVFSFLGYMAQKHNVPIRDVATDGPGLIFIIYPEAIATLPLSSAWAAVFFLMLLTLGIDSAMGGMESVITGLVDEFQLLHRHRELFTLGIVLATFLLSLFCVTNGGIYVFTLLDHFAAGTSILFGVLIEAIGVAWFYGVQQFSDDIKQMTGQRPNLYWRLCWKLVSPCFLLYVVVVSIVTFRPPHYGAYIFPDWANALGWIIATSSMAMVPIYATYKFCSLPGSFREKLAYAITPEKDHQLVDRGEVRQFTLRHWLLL
- test details: Binding at native DA transporter
- experimental conditions: Table 7; native transporter, head prints r (rat); read-out: rDA Uptk Ki
Assign Ki to each entry below.
One number for each entry, in µM.

structure notation: Cc1ccc(Nc2cc(N3CCCCC3)nc(N(C)CCc3c[nH]c4ccccc34)n2)cc1
Ki, µM: 5.43

Report Ki for every entry below.
1. O=C1C(=Nc2ccc(Cl)cc2)c2ccccc2N1c1ccccc1
2. Cc1ccc(Nc2cc(N3CCCCC3)nc(N(C)CCc3ccccc3)n2)cc1
3. Cc1ccc(Nc2cc(N(C)C)nc(N(C)CCc3c[nH]c4ccccc34)n2)cc1
4. COc1cccc(Nc2cc(N3CCCCC3)nc(N(C)CCc3c[nH]c4ccccc34)n2)c1
5. CN(C)c1cc(Nc2ccc(Cl)c(Cl)c2)nc(Nc2ccccc2)n1

Ans:
1. 8.44
2. 7.48
3. 2.79
4. 27.2
5. 14.5

====

- measured on: human GAL3 receptor (Homo sapiens, UniProt O60755)
- Construct: expressed in transfected cells
- Sequence (O60755 whole entry): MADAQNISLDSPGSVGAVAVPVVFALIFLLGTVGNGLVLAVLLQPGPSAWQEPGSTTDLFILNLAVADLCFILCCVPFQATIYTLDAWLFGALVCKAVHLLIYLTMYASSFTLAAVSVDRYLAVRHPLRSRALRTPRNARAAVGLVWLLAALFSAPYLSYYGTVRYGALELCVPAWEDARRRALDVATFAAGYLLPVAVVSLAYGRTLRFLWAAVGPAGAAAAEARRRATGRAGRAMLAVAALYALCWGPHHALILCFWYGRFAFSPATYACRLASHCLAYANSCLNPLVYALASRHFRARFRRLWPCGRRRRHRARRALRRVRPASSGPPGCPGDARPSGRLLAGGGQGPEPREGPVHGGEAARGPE
- test details: Radioligand binding at cloned human GAL3 receptor
- experimental conditions: indolones, cloned human receptor; read-out: Ki GalR3
- Method: The present invention provides for a method of determining the binding affinity of a GAL3 antagonist, wherein the GAL3 antagonist is dissolved in a "suitable solvent". […] The binding properties of the pyrimidines of the present invention were evaluated at the cloned human galanin receptors, GAL1, GAL2, and GAL3, using protocols described herein. […] Binding data were analyzed using nonlinear regression and statistical techniques available in the GraphPAD Prism package (San Diego, CA). […]
Assign Ki to each entry below.
Answers are plain numbers, in nM.

Worked cases, answers included:
compound: O=C1/C(=N\c2cc(Cl)cc(Cl)c2)c2ccccc2N1Cc1cccnc1 [Example 279]
Ki (nM): 81

compound: CC(C)N1C(=O)C(=Nc2ccc(Br)cc2)c2ccccc21 [Example 107]
Ki (nM): 126

compound: Cc1ccc(/N=C2\C(=O)N(c3ccsc3)c3ccccc32)cc1 [Example 263]
Ki (nM): 136

Report Ki for every entry below.
1. O=C1/C(=N\c2ccc(-c3cccnc3)cc2)c2ccccc2N1c1ccccc1 [Example 306]
2. CCn1c2ccccc2c2cc(/N=C3\C(=O)N(c4ccccc4)c4ccccc43)ccc21 [Example 281]
3. Cc1ccc(N=C2C(=O)N(c3ccccc3)c3ccccc32)cc1 [Example 96]
4. O=C1/C(=N\c2ccc(C3CCCCC3)cc2)c2ccccc2N1c1ccsc1 [Example 296]
5. O=C1C(=Nc2cc(Cl)cc(Cl)c2)c2ccccc2N1c1ccccc1 [Example 103]

Ans:
1. 160
2. 150
3. 111
4. 82
5. 68

====

Assign Ki to each entry below.
- measured on: human GAL2 receptor (Homo sapiens, UniProt O43603)
- Construct: expressed in transfected cells
- Sequence (O43603 1-387): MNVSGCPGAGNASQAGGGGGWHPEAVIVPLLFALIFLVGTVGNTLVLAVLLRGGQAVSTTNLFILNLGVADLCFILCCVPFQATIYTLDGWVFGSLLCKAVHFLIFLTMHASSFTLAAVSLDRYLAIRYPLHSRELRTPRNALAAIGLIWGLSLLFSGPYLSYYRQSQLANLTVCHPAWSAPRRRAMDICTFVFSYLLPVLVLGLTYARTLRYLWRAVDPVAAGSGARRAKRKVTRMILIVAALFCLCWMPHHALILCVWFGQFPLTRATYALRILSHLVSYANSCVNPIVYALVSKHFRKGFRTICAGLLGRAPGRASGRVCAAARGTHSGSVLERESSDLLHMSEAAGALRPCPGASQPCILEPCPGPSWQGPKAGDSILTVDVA
- test details: Radioligand binding at cloned human GAL2 receptor
- experimental conditions: pyrimidines, read-out: Ki GalR2
Give bare numbers, in nM.

Worked cases, answers included:
structure notation: Cc1ccc(Nc2cc(N3CCCCC3)nc(N3CCN(c4ccccc4)CC3)n2)cc1
quantity unit: nM
endpoint result: 1500

structure notation: Cc1ccc(Nc2cc(N3CCCCC3)nc(NCCc3c[nH]c4ccccc34)n2)cc1
quantity unit: nM
endpoint result: 865

structure notation: CN(CCc1c[nH]c2ccccc12)c1nc(Nc2cccc(F)c2)cc(N2CCCCC2)n1
quantity unit: nM
endpoint result: 1340

structure notation: Cc1ccc(Nc2cc(N3CCN(c4ncccc4C(F)(F)F)CC3)nc(N3CCCCC3)n2)cc1
quantity unit: nM
endpoint result: 1270

structure notation: CN(CCc1c[nH]c2ccccc12)c1nc(Nc2ccc3ccccc3c2)cc(N2CCCCC2)n1
quantity unit: nM
endpoint result: 1410

Please find the next compound below.
Q: Look up Ki: Cc1ccc(Nc2cc(N3CCCCC3)nc(NCCc3c[nH]c4ccc(C)cc34)n2)cc1
Ans: 795

====

- Tested on: Male Sprague-Dawley rats
- test details: Rat Forced Swim Test (FST)
- Type: in vivo
- experimental conditions: 10 mg/kg p.o., single administration, 1 hr. before test
Marks after values point to notes of the source that are not given here.
Assign Immobility to each entry below.

Worked cases, answers included:
structure notation: CN(C)c1cc(Nc2ccc(Cl)c(Cl)c2)nc(N2CCN(Cc3ccccc3)CC2)n1
Immobility: 39 ± 1.8^b

structure notation: O=C1C(=Nc2ccc(C(F)(F)F)cc2)c2ccccc2N1c1ccccc1
Immobility: 52 ± 1.2^a

structure notation: Cc1ccc(Nc2cc(N3CCCCC3)nc(N(C)CCc3ccccc3)n2)cc1
Immobility: 41 ± 1.3^c

Please find the next molecule below.
Q: Look up Immobility: O=C1C(=Nc2ccc(Br)cc2)c2ccccc2N1c1ccccc1
Ans: 39 ± 1.1^a

====

- measured on: 5HT transporter (Rattus norvegicus, UniProt P31652)
- Sequence (P31652 whole entry): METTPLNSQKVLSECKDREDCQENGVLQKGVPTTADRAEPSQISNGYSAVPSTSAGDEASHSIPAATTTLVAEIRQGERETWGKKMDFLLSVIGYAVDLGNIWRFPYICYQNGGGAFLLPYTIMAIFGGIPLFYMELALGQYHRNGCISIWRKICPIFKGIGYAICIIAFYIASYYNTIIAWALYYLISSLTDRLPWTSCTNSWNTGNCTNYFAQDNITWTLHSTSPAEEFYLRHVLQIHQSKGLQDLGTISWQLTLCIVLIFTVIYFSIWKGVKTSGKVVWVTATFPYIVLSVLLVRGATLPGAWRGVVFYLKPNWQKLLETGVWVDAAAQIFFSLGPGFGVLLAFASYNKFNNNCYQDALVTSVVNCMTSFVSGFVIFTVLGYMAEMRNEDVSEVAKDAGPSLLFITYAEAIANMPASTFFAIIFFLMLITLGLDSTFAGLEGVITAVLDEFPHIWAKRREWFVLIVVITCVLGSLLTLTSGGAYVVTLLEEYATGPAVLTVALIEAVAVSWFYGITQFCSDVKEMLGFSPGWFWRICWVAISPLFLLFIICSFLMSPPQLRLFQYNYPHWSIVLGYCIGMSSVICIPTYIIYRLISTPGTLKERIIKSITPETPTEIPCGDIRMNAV
- test details: Binding at native 5HT transporter
- experimental conditions: Table 7; native transporter, head prints r (rat); read-out: r5HT Uptk Ki
Assign log10(Ki) to each entry below.
Note the log scale: values are log10 of Ki expressed in µM.

Worked cases, answers included:
structure notation: O=C1C(=Nc2cccc(Cl)c2)c2ccccc2N1c1ccccc1
measured on: 5HT transporter (Rattus norvegicus, UniProt P31652)
log10(Ki): 1.11
//
structure notation: Cc1ccc(Nc2cc(N3CCCCC3)nc(N(C)CCc3ccccc3)n2)cc1
measured on: 5HT transporter (Rattus norvegicus, UniProt P31652)
log10(Ki): 0.93
//
structure notation: CN(C)c1cc(Nc2ccc(Cl)c(Cl)c2)nc(Nc2ccccc2)n1
measured on: 5HT transporter (Rattus norvegicus, UniProt P31652)
log10(Ki): 1.40
//
structure notation: COc1cccc(Nc2cc(N3CCCCC3)nc(N(C)CCc3c[nH]c4ccccc34)n2)c1
measured on: 5HT transporter (Rattus norvegicus, UniProt P31652)
log10(Ki): -0.14

Please find the next compound below.
Q: Report log10(Ki) for Cc1ccc(Nc2cc(N3CCCCC3)nc(N(C)CCc3c[nH]c4ccccc34)n2)cc1 tested on 5HT transporter (Rattus norvegicus, UniProt P31652).
Ans: 0.20
